The following sequences are shown together with reported PBM binding z-score values.
Tested on: PPARg:RXRa DBDmut IVT, anti-RXR (DBD mutation: RXRa K156A/R161A, NR concentration 270 nM, RXRa partner concentration 90 nM)
assay-details: PBM binding z-score (relative to random genomic background probes); higher = stronger binding; sequences stand for … in GC…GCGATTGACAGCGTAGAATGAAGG
test-readout: PBM binding z-score

biopolymer_sequence=TCTTGTAGATCAACATGAGGTTAAGAAAGATCGA test_readout="PBM binding z-score" experimental_value=1.66
biopolymer_sequence=TAGCCTAGGTCAGATCGGGCCGGTATACGCTATA test_readout="PBM binding z-score" experimental_value=0.592
biopolymer_sequence=TCAGACAGGTGAAGGTAACACAGGTACGCAGTCG test_readout="PBM binding z-score" experimental_value=2.57
biopolymer_sequence=CCTTACGGGTCAAGTTTATAGCACGGGTGGTACG test_readout="PBM binding z-score" experimental_value=2.03
biopolymer_sequence=TCTTGTCGATCAAGCAGGTTAAGAAAGCCTGAGT test_readout="PBM binding z-score" experimental_value=0.974
biopolymer_sequence=GCTGCTAGGTCAGGTAGGTCAGCTAACGGGTACG test_readout="PBM binding z-score" experimental_value=3.3
biopolymer_sequence=GCTTGTAGATCAAGGTTAAGGAAGACTAAGCTAA test_readout="PBM binding z-score" experimental_value=1.33
biopolymer_sequence=TCTTGTAGATCCAGCAGGTTAAGAAAGCCTGAGT test_readout="PBM binding z-score" experimental_value=1.04
biopolymer_sequence=ACTTTCGGGTCAACGAGGTTATAGCACGCGTATA test_readout="PBM binding z-score" experimental_value=3.31
biopolymer_sequence=CCTGCTACGTCATGGTCAGCTAATCTACAGTATG test_readout="PBM binding z-score" experimental_value=0.0597
biopolymer_sequence=ATCTATAGGTAAAGATAGTTCAGTGAATGCAAAT test_readout="PBM binding z-score" experimental_value=1.2
biopolymer_sequence=ATTAGCAGGCCAAGGGTCACTCAAGATTAGTCCG test_readout="PBM binding z-score" experimental_value=0.795
biopolymer_sequence=TCATATAGGTAAATGCTAGGTGATAGTCCGATCT test_readout="PBM binding z-score" experimental_value=4.05
biopolymer_sequence=TTACTAAGGTGAAGGTCGTTGATCCCTCTGTAGA test_readout="PBM binding z-score" experimental_value=3.98
biopolymer_sequence=ACTATTAGTTGACTTAGGGCAGCCGATACGACGC test_readout="PBM binding z-score" experimental_value=0.0635
biopolymer_sequence=ATCTCTAAGTAAGACTCAGTTCAGTGAAGAACGC test_readout="PBM binding z-score" experimental_value=0.103
biopolymer_sequence=CCTAGCTGGCCAGGGTCACTCAAGCATTTCGCTT test_readout="PBM binding z-score" experimental_value=-0.189
biopolymer_sequence=CGACCTAGGTCAGAACAGGACAGTGAAGGATGAT test_readout="PBM binding z-score" experimental_value=2.58
biopolymer_sequence=ACTTACGGGTCAACGAGGTTAGAGCACGCGTATA test_readout="PBM binding z-score" experimental_value=3.74
biopolymer_sequence=CCTACTGGGCCACGAAAGGTCATTGAGTCAGTGA test_readout="PBM binding z-score" experimental_value=5.96
biopolymer_sequence=ATCTCTAGGTAAAAGTTCAGTAAATCCCGAGGAT test_readout="PBM binding z-score" experimental_value=1.87
biopolymer_sequence=GCGACTGGGGCAAAGCAGGTTACTATAAGGTTGG test_readout="PBM binding z-score" experimental_value=4.62
biopolymer_sequence=CAGCCTAGGTCAGGGCCAGTATGGGAGGAACGTT test_readout="PBM binding z-score" experimental_value=0.702
biopolymer_sequence=ACAGACTGGTGATGAAGGTAACTCAGGCTATCAT test_readout="PBM binding z-score" experimental_value=-0.615
biopolymer_sequence=ACAGACAGGTGATGCAGGTAACTCAGGCTATCAT test_readout="PBM binding z-score" experimental_value=0.0988
biopolymer_sequence=CGGACTAGGTCAGAACAGGACAGTGAAGGATGAT test_readout="PBM binding z-score" experimental_value=6.67

###

The following sequences are shown together with reported PBM binding z-score values.
Tested on: RARb:RXRa (NR concentration 270 nM, RXRa partner concentration 90 nM)
assay-details: PBM binding z-score (relative to random genomic background probes); higher = stronger binding; sequences stand for … in GC…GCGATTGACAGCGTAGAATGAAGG
test-readout: PBM binding z-score

biopolymer_sequence=CCGACTGGGGCATAAGGTTACCATTAGCCAGCCC assay_target="RARb:RXRa (NR concentration 270 nM, RXRa partner concentration 90 nM)" experimental_value=1.61
biopolymer_sequence=GGAACGAGGGCATGCGAGTTGATAGCATGGCGAT assay_target="RARb:RXRa (NR concentration 270 nM, RXRa partner concentration 90 nM)" experimental_value=1.91
biopolymer_sequence=ATACTAAGGTGATCGTGAGGTCGTTGATACTAAC assay_target="RARb:RXRa (NR concentration 270 nM, RXRa partner concentration 90 nM)" experimental_value=1.77
biopolymer_sequence=TCTTGTAGATCAAAGGTTATGAAAGCCGAAGCCT assay_target="RARb:RXRa (NR concentration 270 nM, RXRa partner concentration 90 nM)" experimental_value=1.79
biopolymer_sequence=CCAGACAGGTGAAAGGTAACTCTGTCTGGTACGC assay_target="RARb:RXRa (NR concentration 270 nM, RXRa partner concentration 90 nM)" experimental_value=1.24
biopolymer_sequence=CCTTATGGGTCACGAGGTTATAGCACGACGAGCG assay_target="RARb:RXRa (NR concentration 270 nM, RXRa partner concentration 90 nM)" experimental_value=4.43
biopolymer_sequence=CAAACTAGGTCACGAAAGGTCCAAGTCGAATGAC assay_target="RARb:RXRa (NR concentration 270 nM, RXRa partner concentration 90 nM)" experimental_value=4.51
biopolymer_sequence=TCATATAGGTAGATGCTAGGTGAAAGTCCGATCT assay_target="RARb:RXRa (NR concentration 270 nM, RXRa partner concentration 90 nM)" experimental_value=0.174
biopolymer_sequence=GCTTCTAGGTCAACTGATGGTCAGCTAAAGCTCG assay_target="RARb:RXRa (NR concentration 270 nM, RXRa partner concentration 90 nM)" experimental_value=4.42
biopolymer_sequence=CCTTACGGGTCACTTCAGGTTATAGCATCGGAGT assay_target="RARb:RXRa (NR concentration 270 nM, RXRa partner concentration 90 nM)" experimental_value=3.57
biopolymer_sequence=CCTAGTTGGTGAAGGTCACACACGCTATAGGTAC assay_target="RARb:RXRa (NR concentration 270 nM, RXRa partner concentration 90 nM)" experimental_value=3.74
biopolymer_sequence=TCTATTAGTAGAAGGGCAACCGACGAGTCCGTTT assay_target="RARb:RXRa (NR concentration 270 nM, RXRa partner concentration 90 nM)" experimental_value=1.36

###

Test system: RARa homodimer (NR concentration 270 nM)
assay-details: PBM binding z-score (relative to random genomic background probes); higher = stronger binding; sequences stand for … in GC…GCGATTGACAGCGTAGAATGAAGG
Param threshold (-0.3) applies to PBM binding z-score; output class 1 when value >= threshold, class 0 when value < threshold.

biopolymer_sequence=ACTAGTTGGTCAGTTGAGGTCACACACAATTCGG class_name="class 1"
biopolymer_sequence=TAGAGTAGGTTAGTCGGGGCATTCAGCCAACATA class_name="class 1"
biopolymer_sequence=TAGCCTAGGTCATTGGGCCAGTACAGTACGCATC class_name="class 0"
biopolymer_sequence=CAGCCGAGGTCAGGGCCAGTATAGGAGGAACGTT class_name="class 1"
biopolymer_sequence=ATACCAAGGTGATCGTGAGGTGGTTGATACTAAC class_name="class 1"
biopolymer_sequence=TCTAGTTGGTCACGAAGGTCACACACGACGGGTA class_name="class 1"
biopolymer_sequence=GTACCAAGGTGAATAGGTCGTTGAAGAGTAGGCG class_name="class 1"
biopolymer_sequence=TAGCCTAGGTAATTGGGCCAGTATAGTACGCATC class_name="class 0"
biopolymer_sequence=AATAGAGGGTCATCGTAGGCCAGAGTACGCACAG class_name="class 1"
biopolymer_sequence=TCTTGTAGATCAAGCAGGTTAACAAAGCCTGAGT class_name="class 1"
biopolymer_sequence=TAGCCTAGGTCATTGGGCCCGTATAGTACGCATC class_name="class 0"
biopolymer_sequence=TCTGCAAGGTCAGTTGGTCAGCTAACGAGCTGCC class_name="class 0"

###

The following sequences are shown together with reported PBM binding z-score values.
System: VDR:RXRa (NR concentration 270 nM, RXRa partner concentration 90 nM)
assay-details: PBM binding z-score (relative to random genomic background probes); higher = stronger binding; sequences stand for … in GC…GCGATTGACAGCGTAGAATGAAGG
test-readout: PBM binding z-score

biopolymer_sequence=GCTGCTAGGTCAACTGATGGTCAGCTACAGCTCG experimental_value=1.51
biopolymer_sequence=TCTCGGAGGACACGAAAGGTCAGAGTTCGACATC experimental_value=4.18
biopolymer_sequence=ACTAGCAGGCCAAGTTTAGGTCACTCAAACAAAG experimental_value=0.781
biopolymer_sequence=CCATACGGGTCACTCCAGGTTATAGCATCGGAGT experimental_value=4.11
biopolymer_sequence=GCTGCTATGTCAGGTTGGTCAGCTAACGGGTACG experimental_value=-0.421
biopolymer_sequence=AGAACGAGGGCACGCTGAGTTGAAAGCAGAGTAG experimental_value=2.29
biopolymer_sequence=CCTACTGGGCCAAAGGTCATTGATTCCAATGCTC experimental_value=4.75
biopolymer_sequence=AGAATGAGGTTATACGTAGATCAGCGAAGAAAGT experimental_value=0.978
biopolymer_sequence=GATACAGGGTCAGCAAGAGGCCAGAGTATGGAAA experimental_value=3.43
biopolymer_sequence=TAGCCTAGGTGATGGGCCAGTATACCACGCGAAC experimental_value=-0.726
biopolymer_sequence=ATCTCTAGGTAAACATAGTTCAGTGAATGCAAAT experimental_value=1.34
biopolymer_sequence=CGAACTAGGTCAGAACAGGACAGTAAAGGATGAT experimental_value=0.971
biopolymer_sequence=CCTAGTTGCTCAAGGTCACACACGCTATAGGTAC experimental_value=4.26
biopolymer_sequence=TCTTGTAGATCACGCAGGTTAAGAAAGCCTGAGT experimental_value=0.662
biopolymer_sequence=GATACAGGGTCAAGGCCAGAGGACGCGTATTGAT experimental_value=4.11
biopolymer_sequence=TCAGATAGGTAATACAGGTGAAAGTCGGCATCTA experimental_value=0.887
biopolymer_sequence=ATCGAGAGGTCGAAGGTGAGTATACCCACCCGAA experimental_value=2.42
biopolymer_sequence=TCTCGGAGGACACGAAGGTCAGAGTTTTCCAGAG experimental_value=2.41
biopolymer_sequence=ACTATTAGTTGAGACGAGGGCAACAGATAGGTTG experimental_value=0.625
biopolymer_sequence=CAGCCTGGGTCAGGGCCAGTATAGGAGGAACGTT experimental_value=0.152
biopolymer_sequence=TAGCCTACGTCATGGGCCAGTATACCACGCGAAC experimental_value=-0.472
biopolymer_sequence=TCGAGTAGGTTATGGGCATTCAGAATGGCGTCGA experimental_value=-0.235
biopolymer_sequence=TCTAGTTGGTCACGGAGGTAACACACGACGGGTA experimental_value=1.03
biopolymer_sequence=TCGAGTCGGTTAGGGGCATTCAGAATGGCGTCGA experimental_value=0.541
biopolymer_sequence=TCATATAGGTAATACAGGTGAAAATCGGCATCTA experimental_value=1.32
biopolymer_sequence=CGAACTAGGTAATTGACAGGACAGTGAATAGTAA experimental_value=-0.257

Data origin, for the record: the supplement of paper PMC6555819
